# Target desc: HER2 expressed on the surface of cells (human, UniProt P04626 23-1255)
# Assay name: cell-based or functional assay
Each entry below carries its recorded growth inhibition IC50 (potency), BT474 cells.
Report as a plain number; the unit nM is understood.

Variant 14021 (antibody, name in Kabat numbering, V domains shown, also called v14021) VH: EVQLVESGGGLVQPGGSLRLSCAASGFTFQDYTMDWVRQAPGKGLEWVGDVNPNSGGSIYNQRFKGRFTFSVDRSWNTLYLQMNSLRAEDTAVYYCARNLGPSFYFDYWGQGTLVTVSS VL: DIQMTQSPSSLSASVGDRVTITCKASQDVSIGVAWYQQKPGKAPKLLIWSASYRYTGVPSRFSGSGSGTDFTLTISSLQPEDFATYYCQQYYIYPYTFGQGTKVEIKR ... 0.49

Moving on to the next binder.
The binder Variant 14020 (antibody, name in Kabat numbering, V domains shown, also called v14020) VH: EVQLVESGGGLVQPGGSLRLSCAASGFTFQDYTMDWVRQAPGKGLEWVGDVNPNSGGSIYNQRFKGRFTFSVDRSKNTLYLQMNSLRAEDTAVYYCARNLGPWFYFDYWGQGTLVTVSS VL: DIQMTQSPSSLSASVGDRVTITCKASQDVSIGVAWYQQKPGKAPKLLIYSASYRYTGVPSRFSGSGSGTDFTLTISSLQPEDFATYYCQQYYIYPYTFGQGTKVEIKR showed growth inhibition IC50 (potency), BT474 cells equal to 0.55
